- TEST_PROTOCOL: yeast display, Sf9 membrane polyspecificity reagent, FACS + sequencing; frameworks hold sequencing errors
OBSERVABLE: polyreactivity (PSR sort gate)

// known answers, use as guide
{"columns": ["RESIDUES", "polyreactivity (PSR sort gate)"],
 "data": [
  ["QVQLVESGGGLVQAGGSLRLSCAASGSTVSNYAMGWYRQAPGKERELVASISNGGSTNDADSVKGRFTISRANAKNTGYLQMNSLKPEDTAVYYCNAESKAKYDYWGQGTQVTLSS", "low polyreactivity"],
  ["QVQHVESRGGLVQAGGSLRLSCAASGRIFTGYAMGWYRQAPGKERELVAAITASGGNTYYADSVKGRFTISRVNAKNTVYLQMNSLTPEDTAVFYCAADFYYYKIQYAYWGQGTQVTVSS", "low polyreactivity"],
  ["QVQLVESGGGLVQAGGSLRLSCAASGRNFVNYAMGWYRQAPGKERELVAVISRSGGGTNYADSVKGRYTISRDNAKNTVYLQMNSLKPEDTAVYYCAASRKYGYGYWGQGTQVTVSS", "high polyreactivity"],
  ["QVQLVESGGGLVQAGGSLRLSCAASGRTFFPNAMGWYRPAPGKERELVAAITWRGGSTYYADSVKGRFTISRDNAKNTVYLQMNSLKPEDTAVYYCAARDNPRWPRYYRGRTYDYWGQGTQVTVSS", "high polyreactivity"],
  ["QVQLVESGGGLVQAGGSLRLSCAASGFIFTRYAMGWYRQAPGKERELVAAISASGGSTYYADSVKGRFTISRDNAKNTVYLQMNSLKPEDTAVYYCAAVPYRYTYDYWGQGTQVTVSS", "high polyreactivity"],
  ["QVQLVESVVGLVQAGVSLRLSCAASGSIFEQYAMGWYRQAPGKERELVAAISKRGTSTYYADSVKGRFTISRDNAKNTVYLQINSLKPEDNAVYDCAATNRWYYRAAASVYAFGYWGLGTQVTVSS", "high polyreactivity"]
]}

GET /values?readout=polyreactivity (PSR sort gate)&item= "QVQLVESAGGLVQAGGRLRLSCAASGITISYYAMGWYRQAPGKERELVASISWRGGGTYYADSVKGRFTISRDNAKNTVYLQMNSVKPEDTAVYYCAADEKLYITRYDYWGQGTQVTVSS"
low polyreactivity

Can you check "QVQIVESGGGLVQAGGSLRLSCAASGSTLSYYGMGWYRQAPGKERELVAAISTGGRTYYADSVKGRFSISRDNATNTVFLQMTSLKPEDTAVYYCNALYVSYVSRYDYWGQGTQVTVSS" next?
high polyreactivity

Can you check "QVQLVESGAGLVQAAGSLRLSCAASVSTFYTYAMGRYRQAPGKERELVADIRWRGGSTNYADSVKGRFTISRDNAKNTVYLQMNSLTSEDTAVYYCALRYYYYGASYYYWGHGTQVTVSS" next?
high polyreactivity

Can you check "QVQLVESGGGLVQAGGSLRLSCAASGYTFVNYAMGWYRQAPGKERELVAAITSRGSSTYYADSVKGRFTISRDNAKNTVYLQMKSLKPEDTAVYYCFVHVRNHDYWGQGTQVTVSS" next?
high polyreactivity

Can you check "QVQLVESGGGLVQAGGSLRLSCAASGRTFSNYVMGWYRQAPAKERELVAAITYSGGSTYYADSVKGRFTISRDNATNTVYLQMNSLKPEDTAVYYCARRWGGRGYYYWGQGTQVTVSS" next?
high polyreactivity

Can you check "QVQLVESGGGLVQAGGSLRLSCAASGSIFGTYAMGWYRQAPGKARELVAAITGSGGRTYYADSVKGRFTISRDNAKNTVYLQMNSLKPEDTAVYYCNKVVYVRSYPPRYDYWGQGTQVTVSS" next?
high polyreactivity

----------
- TEST_PROTOCOL: yeast display, Sf9 membrane polyspecificity reagent, FACS + sequencing; frameworks hold sequencing errors
OBSERVABLE: polyreactivity (PSR sort gate)

// known answers, use as guide
{"columns": ["RESIDUES", "polyreactivity (PSR sort gate)"],
 "data": [
  ["QVQLVESGGGLVQAGGSLRLSCAASGRTFYPYAMGWYRQAPGKERELVAAISSGGGSTYYADSVKGRFTISRDNAKNTVYLQMNSLKPEDTAVYYCAKRAGWAGWYYRNDYWGQGTQVTVSS", "high polyreactivity"],
  ["QVQLVESGGGLVQAGGSLRLSCAASGRIFYDNTMGWYRQAPGKERELVAVISWSTGGTYADSVKGRFTISRDNAKNTVYLQMNSLKPEDTAVYYCATPLGYGPDLDYWGQGTQVTVSS", "low polyreactivity"],
  ["QVQLVESGGGLVQAGGSLRLSCAASGFTFSRNAMGWYRQAPGKERELVAAISQSGGSTYYADSVKGRFTISRDNAKNTVYLQMNSRKPEDTAVYYCAATGWIIIKPTSSLKFNYWGQGTQVTVSS", "high polyreactivity"],
  ["QVQLVESGGGLVQAGGSLRLSCAASGRISRVYAMGWYRQAPGKERELVAAITSSGGSTYADSVKGRFTISRDNAKNTVYLQMNSLKPEDTAVYYCAADSYWYRFLKSRYDYWGQGTQVTVSS", "low polyreactivity"],
  ["QVQLVESGGGLVQAGGSLRLSCAASVIIFRLYGMGWYRQAPGKEREFVATITWRGGRTNYADSVKGRFTISRDNAKNTVYLQMNSLKPQDTAVYYCAKVVRYARSNEYDSWGQGTQVTVSS", "low polyreactivity"]
]}

GET /values?readout=polyreactivity (PSR sort gate)&item= "QVQLVESGGGLVQAGGSLRLSCAASGSTSIYYTMGWYRQAPGKERELVAYADSVKGRFTISRDNAKNTVYLQMNRLKPEDTAGYYCAAPRTYYSELTSPYDYWGQGAQVTVSS"
low polyreactivity

----------
- TEST_PROTOCOL: yeast display, Sf9 membrane polyspecificity reagent, FACS + sequencing; frameworks hold sequencing errors
OBSERVABLE: polyreactivity (PSR sort gate)

// known answers, use as guide
{"columns": ["RESIDUES", "polyreactivity (PSR sort gate)"],
 "data": [
  ["QVQLVESGGGLVQAGGSLRLSCAASGSIFNGNAMGWYRQAPGKERELVAAISSGDSTNYADSVKGRFTISRDNAKNTVYLQMNSLKPEDTAVYYCNAVHRSIARGGGMDYWGQGTQVTVSS", "low polyreactivity"],
  ["QVQLVESGGGLVQAGGSLRLSCAASGSTVRRYAMGWYRQAPGKERELVAAISWSGGSTYYADSVKGRFTISRDNAKNTGYLQMNSLKPEDTAVYYCAARGVTSYWQDYDYWGQGTQLTVSS", "low polyreactivity"],
  ["QVQLVESGGGLVQAVGTLRLTCAASGITFNVNAMGWYRQEPGKERELVARITTSGGSTSYADSVKGRFTISRDNAYNTVYLQMNSLKPEDTAVYYCAADRARYFSEYDYWGQGTQVTVSS", "low polyreactivity"],
  ["QVQLVESGGGLVQAGGSLRVSCAASGITFAYYAMGWYRHAPGKDRELVAAITRRGSSTYYADSVKGRFTISRDNAKNTVYLQMNSLKPEATAVYYCAAVAYGRERYDYWGPGTQVTVSS", "high polyreactivity"],
  ["QVQLVESGGGLVQAGGSLRLSCAASGRIFGAYTMGWYRQAPGKERELVAAISWSGGRTYYADSVKGRFTISRDNAKNTVYLQMNSVKPEDTAVYYCAASYSGRQDRYPHYDYWGQGTQVTVSS", "low polyreactivity"]
]}

GET /values?readout=polyreactivity (PSR sort gate)&item= "QVQLVESGGGLVQAGGSLRLSCAASGITFDKYALGWYRQAPGNERELVAAISGSDGSTYYADSVKGRFTISRDNAKNTVYLQNNSLKPEDTAVYYCAAESEYAGTYEYDYWGQGTQVTVSS"
low polyreactivity

Can you check "QVQLVESGGGLVQAGGSLRLSCAASGRTFSINAMGWYRQAPGKERELVAAITWSGGSTYYADSVKGRFTISRDNAKNTVYLQMNSLKPEDTAVYYCNAGLGKFPVKGGRRYRLDYWGQGTQVTVSS" next?
low polyreactivity

Can you check "QVQLVESGGGLVQAGGSLRLSCAASGSIFLYNAMGWYRQAPGKERELVAAISASGGSTYYADSVKGRFTISRDNAKNTVYLQMNSLKPEDTEVYFCAAQYSDYDGFTWPLPPRYDYWGQGTQVTVSS" next?
high polyreactivity

Can you check "QFQLVESGGGLVQAGGSLRLSCAASGSTFQWYAMGWYRQAPGKERELVAAINKSGGTTYYADSVKGRFTISRDNAKNTVYLQMNSLKPEDTAVYYCATDNPVVYQPGNMDYWGQGTQVTVSS" next?
low polyreactivity

Can you check "QVQLVESGGGLVQAGGSLRLSCAASGRIFRGYAMGWYRQAPGKEREFVAAITKNGGSTYYADSVKGRFTISRDNAKNTVYLQMNSLKPEDTAVYYCNAGTFTRRRGLDYWGQGTQVTVSS" next?
low polyreactivity

----------
- TEST_PROTOCOL: yeast display, Sf9 membrane polyspecificity reagent, FACS + sequencing; frameworks hold sequencing errors
OBSERVABLE: polyreactivity (PSR sort gate)

// known answers, use as guide
{"columns": ["RESIDUES", "polyreactivity (PSR sort gate)"],
 "data": [
  ["QVQLVESGGGLVQAGGSLRISCAASGSTFGRYAMGWYRQAPGKEREFVAAITQGGTNTYYADSVKGRFTISRDNAKNTVYLQMNSLKPEDTAVYYCARVRRYPLRYNYWGQGTQVTVSS", "high polyreactivity"],
  ["QVQLVESGGGLVQAGGSLRLSCAASGRTFAYYVMGWYRPAPGKERQLVAAINRSDGSTSYADSVKGRFTISRDNAKNTVYLQMNSLKPEDTAVYYCAKSKPVGPYYYWGQGTQVTVSS", "high polyreactivity"],
  ["QVQLVESGGGLVQAGGSLRLSCAASGRIFWAYAMGWYRQAPGKERELVAVITIGGRTNYADSVKGRFTISRDNAKNTVYLQMNSLKPEDTAVYYCAAERHIITWPYSRYYYWGQGTQVTVSS", "high polyreactivity"],
  ["QVQLVESGGGLVQARGSLRLSCAASGSIFINNTRGWYRQAPGIEREWVAAISITGGSTYYADSVKGRFTISRDNAKNSVYLQMNSLKPEDTAVDYCAADPLQLYDYNYWGQGTQVTVSS", "low polyreactivity"],
  ["QVQLVESGGGLVQAGGSLRLSCAASGSIFTTYAMGWSRQAPGKERELVAAISRSGGSTYSADSVKGRFTISRDNANYTVYLQKNSLKPEDTAVYYCNAVSRYTSDYEDDYWGLGTQVTVSS", "high polyreactivity"],
  ["QVQLVESGGGLVQAGGSLRLSCAASGRIFDTNVMGWYRQAPGTDRDFVAAIRWNGGSTNYADSVKGRFTISRDNSKNTVYLQMNSLKPEDTAVYYCAADGYIGWRHIYEYWGQATQVTVSS", "low polyreactivity"],
  ["QVQLVESGGGLFQAGGSLRLSCAASGRIFSCYAMGWYRQAPGKERELVAAITVRGSTYYADSVKGSFTISRDNAKNTVYLQMNSLKPEDTAVYYCAAGGYPGTTYYGYDFWGQVTQVTVSS", "low polyreactivity"],
  ["QVQLVESGGGLDQAGGSLRLTCAASGSIFEIYDRGWYRQAPGKEMELVASIRTSGGSTFYADSVKGRFTISRDNAKNTVYLQMNSLKPEDTAVYYCAAGDVPRRIYLVYVGYLLDYWGQGTQVTVSS", "low polyreactivity"]
]}

GET /values?readout=polyreactivity (PSR sort gate)&item= "QVQLVESGGGLVQAGGSLRLSCAASGIIFPPYTMGWYRQAPGKERELVAGITGNSGTTYYADSVKGRFTISRDNAKNTVYLQMNSLKPEDTAVYYCAVRDVYHRYWGQGTQVTVSS"
high polyreactivity

Can you check "QVQHVESGGGLVQAGGSLRLSCAASGSTLGGYAMGWSRQAPGKERELVAAISGSGGSTYYADSVKGRFTISRDNAKNSVYLQMNSLKPEDTAVYYCNAAVLGGIYRYYDYRYDYWGQGTQLTVSS" next?
low polyreactivity

Can you check "QVQLVESGGCLVQAGGSLRLSCAASGSTFDYYAMGWYTQAPGKERELVAAISSSGSSTYYADSVKGRFTISRDNAKNTVYLQMNSLKPEDTAVYYCAKGTNYRDDYWGQGTQVTVSS" next?
low polyreactivity

Can you check "KVQLVESRGGLVQAGGSLRLSCAASGIIFYTYAMGWNRQAPGKERELVASISWDVDSTNYADSVKGRFTISRDNAKNTVYLQMNSLKPEYTAVYYCAVDYTFDSYWYWVDYYEYGYWGQGTQVTVSS" next?
high polyreactivity
